test system: TRPC4 beta (transient receptor potential cation channel C4), mouse; experiment: TRPC4 cation channel opening, retest – cell-based, Fluo4 calcium, HEK293 TRPC4beta/mu-opioid, duplicates, 10 µM, confirmation (AID 2426); conditions: Fluo4 calcium fluorescence, at 10 µM; active compounds read high;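 as to activation: percent rise of integrated ratio over buffer wells lacking compound which define 0%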
Active and inactive are the calls of the source.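 The calls were made as follows: active = fluorescence ratio normalized to control raised more than 50% in primary screen plus both repeat runs; inactive = the rest.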
measured_attribute: activation

>  <molecule>
Brc1cc2c(cc1COc1ccc(-c3nn[nH]n3)cc1)OCO2

>  <recorded_value>
inactive

$$$$
>  <molecule>
CCOC(=O)C1(Cc2ccccc2)CCN(Cc2cccn2-c2cccnc2)CC1

>  <recorded_value>
55% (active)

$$$$
>  <molecule>
Cc1cc(C)c(S(=O)(=O)N2CCN(C)CC2)c(C)c1

>  <recorded_value>
inactive

$$$$
>  <molecule>
Cc1nn(C(=O)c2cccnc2)c(C)c1Sc1ccccc1

>  <recorded_value>
inactive

$$$$
>  <molecule>
Cc1cc(OCc2cc(C(=O)NCCN3CCCCC3CO)no2)cc(C)c1Cl (stereo not drawn)

>  <recorded_value>
inactive

$$$$
>  <molecule>
Cc1nc2ccccc2n1Cc1ccc(Br)cc1

>  <recorded_value>
inactive

$$$$
>  <molecule>
Cc1cc(-c2ccc(C)c(S(=O)(=O)N3CCN(c4ccccn4)CC3)c2)on1

>  <recorded_value>
inactive

$$$$
>  <molecule>
Cc1c(N2C(=O)/C(=C\C3CC=CCC3)SC2=S)c(=O)n(-c2ccccc2)n1C (stereo not drawn)

>  <recorded_value>
inactive

$$$$
>  <molecule>
CCOC(=O)c1c(C)oc2ccc(O)c(CN3CCCCC3)c12

>  <recorded_value>
inactive

$$$$
>  <molecule>
O=C(CC1C(=O)NCCN1Cc1cccc(Oc2ccccc2)c1)NCCc1ccccn1 (stereo not drawn)

>  <recorded_value>
99% (active)

$$$$
>  <molecule>
Cc1ccc(Nc2c(N)c(=O)oc3ccccc23)cc1

>  <recorded_value>
inactive

$$$$
>  <molecule>
CC(OCC(O)CN(C)CCOc1ccccc1)c1ccc(Cl)cc1 (stereo not drawn)

>  <recorded_value>
inactive

$$$$
>  <molecule>
Clc1ccccc1CSc1nc2ccncc2[nH]1

>  <recorded_value>
inactive

$$$$
>  <molecule>
Cn1c(/N=C/c2ccccc2[N+](=O)[O-])nc2ccccc21

>  <recorded_value>
inactive

$$$$
>  <molecule>
Cc1ccccc1CN1CCCC(C(=O)Nc2ccccc2Oc2cccnc2)C1 (stereo not drawn)

>  <recorded_value>
inactive

$$$$
>  <molecule>
CCN1CCN(c2ccc(S(=O)(=O)N3CCOCC3)cc2NC(=O)c2ccccc2SC)CC1

>  <recorded_value>
316% (active)

$$$$
>  <molecule>
CCCc1c(O)nc(SCCN(CC)CC)[nH]c1=O

>  <recorded_value>
179% (active)

$$$$
>  <molecule>
CC1=CC(=O)C(C(C)C)=C/C1=N/OS(=O)(=O)c1ccccc1

>  <recorded_value>
inactive

$$$$
>  <molecule>
O=C(NCCc1cnc[nH]1)c1ccc(-c2ccccc2)cc1

>  <recorded_value>
109% (active)

$$$$
>  <molecule>
CCCCCCCCCCCCOC(=O)C[N+](C)(C)C

>  <recorded_value>
inactive

$$$$
>  <molecule>
OCC1(CC2CCCCO2)CCN(Cc2ccccc2-c2ccco2)CC1 (stereo not drawn)

>  <recorded_value>
inactive

$$$$
>  <molecule>
COc1ccc(Cc2noc(CN(C)CC3CCN(Cc4ccccc4)CC3)n2)cc1OC

>  <recorded_value>
inactive

$$$$
>  <molecule>
Cc1c(C(=O)NCC(c2ccco2)N(C)C)oc2c(Cl)cccc12 (stereo not drawn)

>  <recorded_value>
inactive

$$$$
